Where do the numbers come from? From the array DNA melting data of Ke et al. (doi:10.1101/2024.01.08.574731).

Test: melting temperature; fluorescence melt of hairpins on a sequencing array, two-state fit, raised by 9.35 °C to match UV melts
Settings: sodium 0.088 M
Measured parameter: Tm (°C)
Just the number please, in °C, no unit attached.

Ask: What does the record list as Tm for GCCGCTCGAAAGAGAGGC (((.(((....))).))) ?
Reply: 67.1

Ask: What does the record list as Tm for GATCTCCGAAGAGATC ((((((....)))))) ?
Reply: 54

Ask: What does the record list as Tm for GATCCCTAAGGGGATC ((((((....)))))) ?
Reply: 61.1

Ask: What does the record list as Tm for GGAGTTGGAAACGACTTC (.(((.(....).))).) ?
Reply: 59.7

Ask: What does the record list as Tm for GATCAACCTTTGATC ((((((...)))))) ?
Reply: 42

Ask: What does the record list as Tm for GAAATTGGAAACAATTCC (.(((((....))))).) ?
Reply: 30.5

Ask: What does the record list as Tm for GATACCGAAAGGTATC ((((((....)))))) ?
Reply: 62.5

Ask: What does the record list as Tm for GTTCCGGGAAACCGGGAC ((.((((....)))).)) ?
Reply: 57.4

Ask: What does the record list as Tm for GCGGTGCGAAAGCCCGGC ((.(.((....)).).)) ?
Reply: 61.7

Ask: What does the record list as Tm for GCCTAGCGAAAGCGGGGC (((..((....))..))) ?
Reply: 65.9

Ask: What does the record list as Tm for GCACAAGGAAACTTATGC (((.(((....))).))) ?
Reply: 29.4

Ask: What does the record list as Tm for GCAATTCGAAAGAACTGC (((.(((....))).))) ?
Reply: 43.4

Ask: What does the record list as Tm for GATCTACCATTAGATC ((((((....)))))) ?
Reply: 37.9

Ask: What does the record list as Tm for GGTGTCGAAAGACCACC ((((((....))).))) ?
Reply: 49.7

Ask: What does the record list as Tm for GATCTCTTTGAGATC ((((((...)))))) ?
Reply: 55.8

Ask: What does the record list as Tm for GGGGTAGGAAACTGCCTC (.((.((....)).)).) ?
Reply: 38

Ask: What does the record list as Tm for GATGTGGGAAACTACATC (((((.(....).))))) ?
Reply: 44.9

Ask: What does the record list as Tm for GCTGCGCGAAAGCTCTGC ((.(.((....)).).)) ?
Reply: 42.3

Ask: What does the record list as Tm for GCAGCTGGAAACAACTGC ((((.((....)).)))) ?
Reply: 46.6

Ask: What does the record list as Tm for GTCGCCCCGAAAGGGGAC (((..(((....)))))) ?
Reply: 40.1

Ask: What does the record list as Tm for GTCACGGGAAACTGTGGC (.(((.(....).))).) ?
Reply: 44.4

Ask: What does the record list as Tm for GACTCCGGAAACGGGGTC (((.(((....))).))) ?
Reply: 57.2

Ask: What does the record list as Tm for GATCGAAAGGTCGATC ((((((....)))))) ?
Reply: 47.7

Ask: What does the record list as Tm for GTTGACGAAAGTCTTAAC ((((((....)))..))) ?
Reply: 28.1

Ask: What does the record list as Tm for GATCAAGAGCTTGATC ((((((....)))))) ?
Reply: 42.2
